Here the recorded pIC50 is given for each entry.
- target.or.system: Human immunodeficiency virus type 1 reverse transcriptase (Human immunodeficiency virus 1, UniProt Q72547)
pIC50: −log10 of the molar value.
recorded.endpoint: pIC50

> print(dat)
                                   molecule  endpoint.value
1  Cc1cc(C)cc(S(=O)(=O)c2c(C(=O)NC(C)c3cccs3)[nH]c3ccc(Cl)cc23)c1 (centres undefined)            7.57
2  Cc1cc(C)cc(S(=O)(=O)c2c(C(=O)NCc3ccco3)[nH]c3ccc(Cl)cc23)c1            8.52
3  Cc1cc(C)cc(S(=O)(=O)c2c(C(=O)NC(C)c3cccnc3)[nH]c3ccc(Cl)cc23)c1 (racemic)            7.00
4  Cc1cc(C)cc(S(=O)(=O)c2c(C(=O)NCCc3cccs3)[nH]c3ccc(Cl)cc23)c1            7.15
